IC50 listing for selected molecules.
System: MKN-45/Ubc-luc cells
RUN_DESCRIPTION: Reporter gene specificity control (Ubc-luciferase), MKN-45
REPORTED_CONDITIONS: Homo sapiens, MKN-45, 24 h, read-out: Reporter gene assay MKN-45 IC50 [μM], MKN-45/Ubc-luc cells (YAP deleted, specificity control), 24 hours incubation
PARAMETER: IC50

[
  {
    "MOLECULE": "C[C@H]1c2c(cc(F)c(Cl)c2-c2c(C(N)=O)ccc(OCCO)c2F)O[C@]1(CN[C@H]1CC[C@](C)(O)CC1)c1ccccc1 (atropisomer, axis not shown) [Example 117a]",
    "RESULT": "> 10 µM"
  },
  {
    "MOLECULE": "CNC[C@@]1(c2ccccc2)Cc2c(ccc(Cl)c2-c2c(C(N)=O)ccc(OC)c2F)O1 (atropisomer, axis not shown) [Example 21]",
    "RESULT": "> 10 µM"
  },
  {
    "MOLECULE": "NC(=O)c1ccc(OC(F)F)c(F)c1-c1c(Cl)c(F)cc2c1C[C@@](CN[C@@H]1CCC[C@H](O)C1)(c1ccccc1)O2 (atropisomer, axis not shown) [Example 83]",
    "RESULT": "> 10 µM"
  },
  {
    "MOLECULE": "COc1ccc(C(N)=O)c(-c2c(Cl)c(F)cc3c2[C@H](O)[C@](c2ccccc2)(C2CCCN2)O3)c1F (stereo partly drawn) [Example 164]",
    "RESULT": "> 10 µM"
  },
  {
    "MOLECULE": "C[C@@H](O)CNC[C@@]1(c2ccccc2)Cc2c(cc(F)c(Cl)c2-c2c(C(N)=O)ccc(OC(F)F)c2F)O1 (atropisomer, axis not shown) [Example 74]",
    "RESULT": "> 10 µM"
  },
  {
    "MOLECULE": "NC[C@@]1(c2ccccc2)Cc2c(cc(F)c(Cl)c2-c2cc(SC(F)(F)CO)ccc2C(N)=O)O1 (atropisomer, axis not shown) [Example 39]",
    "RESULT": "> 10 µM"
  },
  {
    "MOLECULE": "NC[C@@]1(c2ccccc2)Cc2c(cc(F)c(Cl)c2-c2c(C(N)=O)ccc(OC(F)F)c2F)O1 (atropisomer, axis not shown) [Example 35]",
    "RESULT": "> 10 µM"
  },
  {
    "MOLECULE": "C[C@H](O)COc1ccc(C(N)=O)c(-c2c(Cl)c(F)cc3c2[C@H](C)[C@](c2ccccc2)(C2CCCN2)O3)c1F (stereo partly drawn) [Example 167]",
    "RESULT": "> 10 µM"
  },
  {
    "MOLECULE": "CNC(=O)c1ccc(OC)c(F)c1-c1c(C#N)ccc2c1C[C@@](CN[C@H]1CC[C@](C)(O)CC1)(c1ccccc1)O2 (atropisomer, axis not shown) [Example 129]",
    "RESULT": "> 10 µM"
  },
  {
    "MOLECULE": "NC(=O)c1ccc(OCCO)c(F)c1-c1c(Cl)c(F)cc2c1C[C@](c1ccccc1)([C@@H]1CCCN1)O2 (atropisomer, axis not shown) [Example 151]",
    "RESULT": "> 10 µM"
  },
  {
    "MOLECULE": "C[C@H]1c2c(cc(F)c(Cl)c2-c2c(C(N)=O)ccc(OCCO)c2F)O[C@]1(CNC1CCC1)c1ccccc1 (atropisomer, axis not shown) [Example 118]",
    "RESULT": "> 5.5 µM"
  },
  {
    "MOLECULE": "CNC[C@]1(c2ccccc2)Oc2cc(F)c(Cl)c(-c3c(C(N)=O)ccc(OCCO)c3F)c2[C@@H]1C (atropisomer, axis not shown) [Example 110]",
    "RESULT": "> 4 µM"
  }
]

meta.source: patent US12083101B2
